Target: 85/88 kDa calcium-independent phospholipase A2 (Homo sapiens)
Sequence (O60733 whole entry): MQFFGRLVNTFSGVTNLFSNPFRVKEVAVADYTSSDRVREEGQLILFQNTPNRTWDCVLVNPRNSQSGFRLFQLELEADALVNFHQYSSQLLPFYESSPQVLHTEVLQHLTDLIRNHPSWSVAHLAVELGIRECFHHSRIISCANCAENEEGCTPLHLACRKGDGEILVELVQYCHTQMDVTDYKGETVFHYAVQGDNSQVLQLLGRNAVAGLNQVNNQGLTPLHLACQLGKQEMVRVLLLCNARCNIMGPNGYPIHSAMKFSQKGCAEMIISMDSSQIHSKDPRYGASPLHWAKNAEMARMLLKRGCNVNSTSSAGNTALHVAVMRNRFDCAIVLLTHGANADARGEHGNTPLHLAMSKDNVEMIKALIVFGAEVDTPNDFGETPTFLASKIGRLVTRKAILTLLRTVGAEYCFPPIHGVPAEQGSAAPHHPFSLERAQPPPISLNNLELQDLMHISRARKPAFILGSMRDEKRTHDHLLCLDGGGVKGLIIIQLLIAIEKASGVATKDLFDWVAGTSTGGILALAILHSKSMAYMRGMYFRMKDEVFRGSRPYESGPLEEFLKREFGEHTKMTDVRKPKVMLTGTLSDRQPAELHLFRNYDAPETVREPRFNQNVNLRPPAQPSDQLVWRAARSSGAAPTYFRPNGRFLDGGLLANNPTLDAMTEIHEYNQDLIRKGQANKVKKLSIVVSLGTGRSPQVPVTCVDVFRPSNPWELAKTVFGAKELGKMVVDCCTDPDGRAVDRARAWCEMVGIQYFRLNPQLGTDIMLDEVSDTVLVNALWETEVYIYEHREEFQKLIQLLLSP
Assay: Inhibition of human recombinant iPLA2 assessed as reduction in 16:0 LPC formation after 30 mins by HPLC-MS analysis
Endpoint label: pIC50
Please treat pIC50 as minus the base-10 logarithm of the molar concentration.

Query string: # value lookup — system 85/88 kDa calcium-independent phospholipase A2 (Homo sapiens), readout pIC50, item `CCCCCCCCSCC(=O)C(F)(F)F`
Result string: 7.26

* * *

Target: 85/88 kDa calcium-independent phospholipase A2 (Homo sapiens)
Assay: Inhibition of human recombinant calcium-independent PLA2 using PAPC as substrate assessed as reduction in 16:0 LPC formation after 30 mins by HPLC-MS analysis
Endpoint label: pIC50
Please treat pIC50 as minus the base-10 logarithm of the molar concentration.

Query string: GET /values?readout=pIC50&item= `CCCCCCCCSCC(=O)C(F)(F)F`
Result string: 7.27
